# ASSAY: Stability of the nine components in rat plasma QC samples (auto-sampler, freeze-thaw, long-term)
# Format: physicochemical
# DETAILS: rat plasma, MQC spiked 500 ng/mL (1000 ng/mL for II), n = 5
READOUT KIND: Long-Term Stability (−80 °C, 14 Days), RE

>>> measured_result("O=C(/C=C/c1ccc(O)c(O)c1)O[C@@H]1C[C@](O)(C(=O)O)C[C@@H](O)[C@H]1O [III, chlorogenic acid]")
"−1.20%"
>>> measured_result("O=C(/C=C/c1ccc(O)c(O)c1)O[C@@H](C(=O)O)[C@@H](O)C(=O)O")
"−5.34%"
>>> measured_result("O=c1cc(-c2ccc(O)c(O)c2)oc2cc(O[C@@H]3O[C@H](CO)[C@@H](O)[C@H](O)[C@H]3O)cc(O)c12 [VIII, luteolin-7-O-β-D-glucoside]")
"0.81%"

###

# ASSAY: Pharmacokinetic study in rats after a single intravenous administration of concentrated Kudiezi injection (HPLC-MS/MS of plasma)
# Type: in vivo, Sprague-Dawley rats
# DETAILS: male, Sprague-Dawley, rat, plasma, iv, 3.6 mL/kg, single i.v. 3.6 mL/kg of 15 times concentrated KI, mean ± SD, n = 5
READOUT KIND: clearance (mL/min/kg)

>>> measured_result("O=C(O)[C@H]1O[C@@H](Oc2cc(O)c3c(=O)cc(-c4ccc(O)cc4)oc3c2)[C@H](O)[C@@H](O)[C@@H]1O [IX, apigenin-7-O-β-D-glucuronide]")
168
>>> measured_result("O=C(/C=C/c1ccc(O)c(O)c1)O[C@@H](C(=O)O)[C@@H](O)C(=O)O [II, caftaric acid]")
64.2
>>> measured_result("O=c1cc(-c2ccc(O)c(O)c2)oc2cc(O[C@@H]3O[C@H](CO)[C@@H](O)[C@H](O)[C@H]3O)cc(O)c12 [VIII, luteolin-7-O-β-D-glucoside]")
138
>>> measured_result("O=C(/C=C/c1ccc(O)c(O)c1)O[C@H]1[C@H](O)C[C@](O)(C(=O)O)C[C@H]1O [IV, 4-caffeoylquinic acid]")
30.2
>>> measured_result("O=C(O)/C=C/c1ccc(O)c(O)c1 [Compound V, caffeic acid]")
34.7
>>> measured_result("O=c1cc(-c2ccc(O)c(O)c2)oc2cc(O[C@@H]3O[C@H](CO[C@@H]4O[C@H](CO)[C@@H](O)[C@H](O)[C@H]4O)[C@@H](O)[C@H](O)[C@H]3O)cc(O)c12 [Compound VI, luteolin-7-O-β-D-gentiobioside]")
128
>>> measured_result("O=C(O)[C@H]1O[C@@H](Oc2cc(O)c3c(=O)cc(-c4ccc(O)c(O)c4)oc3c2)[C@H](O)[C@@H](O)[C@@H]1O [VII, luteolin-7-O-β-D-glucuronide]")
95.5
>>> measured_result("O=C(/C=C/c1ccc(O)c(O)c1)O[C@@H]1C[C@](O)(C(=O)O)C[C@@H](O)[C@H]1O [I, 5-caffeoylquinic acid]")
49.8

###

List of Vd values.
# ASSAY: Pharmacokinetic study in rats after a single intravenous administration of concentrated Kudiezi injection (HPLC-MS/MS of plasma)
# Type: in vivo, Sprague-Dawley rats
# DETAILS: male, Sprague-Dawley, rat, plasma, iv, 3.6 mL/kg, single i.v. 3.6 mL/kg of 15 times concentrated KI, mean ± SD, n = 5, read-out: Vd
READOUT KIND: Vd (L/kg)

>>> measured_result("O=C(/C=C/c1ccc(O)c(O)c1)O[C@@H]1C[C@](O)(C(=O)O)C[C@@H](O)[C@H]1O [I, 5-caffeoylquinic acid]")
8.22
>>> measured_result("O=C(O)[C@H]1O[C@@H](Oc2cc(O)c3c(=O)cc(-c4ccc(O)cc4)oc3c2)[C@H](O)[C@@H](O)[C@@H]1O [IX, apigenin-7-O-β-D-glucuronide]")
1
>>> measured_result("O=c1cc(-c2ccc(O)c(O)c2)oc2cc(O[C@@H]3O[C@H](CO)[C@@H](O)[C@H](O)[C@H]3O)cc(O)c12 [VIII, luteolin-7-O-β-D-glucoside]")
1.51
>>> measured_result("O=c1cc(-c2ccc(O)c(O)c2)oc2cc(O[C@@H]3O[C@H](CO[C@@H]4O[C@H](CO)[C@@H](O)[C@H](O)[C@H]4O)[C@@H](O)[C@H](O)[C@H]3O)cc(O)c12 [Compound VI, luteolin-7-O-β-D-gentiobioside]")
2.51

###

# ASSAY: Stability of the nine components in rat plasma QC samples (auto-sampler, freeze-thaw, long-term)
# Type: physicochemical
# DETAILS: rat plasma, MQC spiked 500 ng/mL (1000 ng/mL for II), n = 5
READOUT KIND: Freeze-Thaw Stability (Three Cycles), RE (%)

>>> measured_result("O=c1cc(-c2ccc(O)c(O)c2)oc2cc(O[C@@H]3O[C@H](CO)[C@@H](O)[C@H](O)[C@H]3O)cc(O)c12 [VIII, luteolin-7-O-β-D-glucoside]")
0.67
>>> measured_result("O=C(O)[C@H]1O[C@@H](Oc2cc(O)c3c(=O)cc(-c4ccc(O)c(O)c4)oc3c2)[C@H](O)[C@@H](O)[C@@H]1O [VII, luteolin-7-O-β-D-glucuronide]")
"−1.08"
>>> measured_result("O=C(O)/C=C/c1ccc(O)c(O)c1 [Compound V, caffeic acid]")
"−2.10"
>>> measured_result("O=C(/C=C/c1ccc(O)c(O)c1)O[C@H]1[C@H](O)C[C@](O)(C(=O)O)C[C@H]1O [IV, 4-caffeoylquinic acid]")
"−0.15"
